- Test system: RAW-Dual (murine macrophage reporter line)
- assay-text: NF-kB reporter (SEAP) activity fold change vs agonist alone; higher = enhanced NF-kB activity
- assay-setup: modulator concentration 10 µM; agonist: CpG ODN 1826 0.5 ug/mL
Threshold check on NF-kB reporter: at or above 1 gives 1.0, strictly below gives 0.0.

In [3]: df
Out[3]:
                                    molecule  assigned_category
 0  CC1CCc2nc(NC(=O)C3CCCN3S(C)(=O)=O)sc2C1 (configuration not stated)                0.0
 1  CCN(CC)c1ccc(C=NNC(=O)c2ccc(O)cc2)c(O)c1                1.0
 2  Cc1nnc(C(=O)NC(C)(C)c2nc(C(=O)NCc3ccc(F)cc3)c(O)c(=O)n2C)o1                1.0
 3  COc1ccc(C(=O)Nc2cccc([N+](=O)[O-])c2)cc1I                1.0
 4      CN(C)CCCOc1nn(Cc2ccccc2)c2ccccc12.Cl                0.0
 5      CN(C/C=C/C#CC(C)(C)C)Cc1cccc2ccccc12                0.0
 6  CCOc1ccc(Cc2cc([C@@H]3O[C@H](SC)[C@@H](O)[C@H](O)[C@H]3O)ccc2Cl)cc1                0.0
 7  NC(CO)(CO)CO.O=C(c1ccccc1)c1ccc2n1CCC2C(=O)O (configuration not stated)                0.0
 8     COc1cc(O)c2c(=O)cc(-c3ccc(O)cc3)oc2c1                1.0
 9  Brc1ccc(-c2cc(-c3ccccc3)nc(N3CCCCC3)n2)cc1                0.0
10  c1ccc(OCCOc2ccc(Nc3ccnc4cc5ccccc5cc34)cc2)cc1                0.0
11    Cc1c(-c2ccccc2)nc2ccccc2c1C(=O)N1CCCC1                1.0
12  CC(C)(C)c1cc(C(=O)NN=Cc2ccc([N+](=O)[O-])cc2)[nH]n1                0.0
13   COC(=O)c1ccc(C=NN=C2C(=O)Nc3ccccc32)cc1                0.0
14  CN1C(=O)C(=C2SC(=S)N(C(CCC(=O)O)C(=O)O)C2=O)c2ccccc21 (configuration not stated)                0.0
15  CCOC(=O)CNS(=O)(=O)c1ccc([N+](=O)[O-])cc1                1.0
16  COc1ccc(C)cc1NC(=O)CN(c1cccc(Br)c1)S(=O)(=O)c1ccccc1                0.0
17  COc1cccc2c1C(=O)c1c(O)c3c(c(O)c1C2=O)C[C@@](O)(C(=O)CO)C[C@@H]3O[C@H]1C[C@H](N)[C@H](O)[C@H](C)O1.Cl                0.0
